System: CCRIS mutagenicity, Ames/micronucleus/aberration tests
Assay: CCRIS mutagenicity studies
Conditions: Test System: AMES SALMONELLA TYPHIMURIUM; Strain/Indicator: TA1537; Metabolic Activation: NONE
The source made the active and inactive calls. No rule for the calls is given here.
Entry note: the call must match one of Yes for active, No for inactive

Solved entries:
[[record]]
molecule = "CC(C)NCC(O)c1ccc2ccccc2c1 (stereo not drawn)"
system_tested = "CCRIS mutagenicity, Ames/micronucleus/aberration tests"
label_class = "No"

[[record]]
molecule = "CC(=O)Nc1ccc(CC(=O)O)cc1"
system_tested = "CCRIS mutagenicity, Ames/micronucleus/aberration tests"
label_class = "No"

[[record]]
molecule = "CCOC(=O)Nc1cccc2c1CN(C)CC2c1ccc(Cl)cc1 (stereo not drawn)"
system_tested = "CCRIS mutagenicity, Ames/micronucleus/aberration tests"
label_class = "No"

[[record]]
molecule = "COc1cc(C(=O)OCCCN2CCCN(CCCOC(=O)c3cc(OC)c(OC)c(OC)c3)CC2)cc(OC)c1OC"
system_tested = "CCRIS mutagenicity, Ames/micronucleus/aberration tests"
label_class = "No"

[[record]]
molecule = "Nc1c2ccccc2nc2ccccc12"
system_tested = "CCRIS mutagenicity, Ames/micronucleus/aberration tests"
label_class = "Yes"

[[record]]
molecule = "CC(C)NCC(O)COc1cccc2[nH]ccc12 (stereo not drawn)"
system_tested = "CCRIS mutagenicity, Ames/micronucleus/aberration tests"
label_class = "No"


Exercise: Just curious, what result did CO[C@@]1(NC(=O)CSC[C@@H](N)C(=O)O)C(=O)N2C(C(=O)O)=C(CSc3nnnn3C)CS[C@@H]21 get here?
Solution: No

Exercise: Record lookup: outcome of this test for [Br][Pb][Br] ?
Solution: No

====

System: CCRIS mutagenicity, Ames/micronucleus/aberration tests
Assay: CCRIS mutagenicity studies
Details: Test System: AMES SALMONELLA TYPHIMURIUM; Strain/Indicator: TA100; Metabolic Activation: RAT, LIVER, S-9, AROCLOR 1254; Method: PREINCUBATION
Activity calls are given as the source filed them. How the calls were made is not given here.
The reply should name one outcome from t (active), f (inactive)

[[record]]
smiles = "Oc1ccccc1O"
system_tested = "CCRIS mutagenicity, Ames/micronucleus/aberration tests"
label_class = "f"

[[record]]
smiles = "O[C@H]1C=Cc2ccc3c(sc4ccccc43)c2[C@@H]1O"
system_tested = "CCRIS mutagenicity, Ames/micronucleus/aberration tests"
label_class = "f"

[[record]]
smiles = "CC(=O)NNC(=O)c1ccccn1"
system_tested = "CCRIS mutagenicity, Ames/micronucleus/aberration tests"
label_class = "f"

[[record]]
smiles = "ClC(Cl)(Cl)c1ccccc1"
system_tested = "CCRIS mutagenicity, Ames/micronucleus/aberration tests"
label_class = "t"


Please look at the following molecule next.
Exercise: Test call, this molecule: CC(C)[N+](=O)[O-]
Solution: t

====

Tested on: CCRIS mutagenicity, Ames/micronucleus/aberration tests
Assay: CCRIS mutagenicity studies
Conditions: Test System: AMES SALMONELLA TYPHIMURIUM; Strain/Indicator: YG1029; Metabolic Activation: NONE; Method: PREINCUBATION
Calls of active or inactive are those of the source. The rule behind the calls is not given here.
Tick one outcome: 1 (yes) (active), 0 (no) (inactive)

# example entries with known answers
[[record]]
smiles = "O=[N+]([O-])c1ccc(Nc2ncnc3nc[nH]c23)cc1"
system_tested = "CCRIS mutagenicity, Ames/micronucleus/aberration tests"
label_class = "0 (no)"

[[record]]
smiles = "O=[N+]([O-])c1ccc(CNc2ncnc3nc[nH]c23)cc1"
system_tested = "CCRIS mutagenicity, Ames/micronucleus/aberration tests"
label_class = "0 (no)"

[[record]]
smiles = "Nc1ncnc2nc(-c3ccc([N+](=O)[O-])cc3)[nH]c12"
system_tested = "CCRIS mutagenicity, Ames/micronucleus/aberration tests"
label_class = "1 (yes)"


We now examine a further compound.
Exercise: # lookup: test call for Nc1nc(-c2ccc([N+](=O)[O-])cc2)nc2c1ncn2-c1ccc([N+](=O)[O-])cc1
Solution: 1 (yes)
